Measured Inhibition of binding (%), listed per entry for reference.
Target: T1, hCMV glycoprotein B (gB; HEK293T transfectant) (hCMV, UniProt P06473 32-906)
T1 construct: whole, on cells; in the functional rows it stands for gB on virions or transduced cells of the strain or isolate named in the readout
T1 sequence (P06473 32-906 limits assumed): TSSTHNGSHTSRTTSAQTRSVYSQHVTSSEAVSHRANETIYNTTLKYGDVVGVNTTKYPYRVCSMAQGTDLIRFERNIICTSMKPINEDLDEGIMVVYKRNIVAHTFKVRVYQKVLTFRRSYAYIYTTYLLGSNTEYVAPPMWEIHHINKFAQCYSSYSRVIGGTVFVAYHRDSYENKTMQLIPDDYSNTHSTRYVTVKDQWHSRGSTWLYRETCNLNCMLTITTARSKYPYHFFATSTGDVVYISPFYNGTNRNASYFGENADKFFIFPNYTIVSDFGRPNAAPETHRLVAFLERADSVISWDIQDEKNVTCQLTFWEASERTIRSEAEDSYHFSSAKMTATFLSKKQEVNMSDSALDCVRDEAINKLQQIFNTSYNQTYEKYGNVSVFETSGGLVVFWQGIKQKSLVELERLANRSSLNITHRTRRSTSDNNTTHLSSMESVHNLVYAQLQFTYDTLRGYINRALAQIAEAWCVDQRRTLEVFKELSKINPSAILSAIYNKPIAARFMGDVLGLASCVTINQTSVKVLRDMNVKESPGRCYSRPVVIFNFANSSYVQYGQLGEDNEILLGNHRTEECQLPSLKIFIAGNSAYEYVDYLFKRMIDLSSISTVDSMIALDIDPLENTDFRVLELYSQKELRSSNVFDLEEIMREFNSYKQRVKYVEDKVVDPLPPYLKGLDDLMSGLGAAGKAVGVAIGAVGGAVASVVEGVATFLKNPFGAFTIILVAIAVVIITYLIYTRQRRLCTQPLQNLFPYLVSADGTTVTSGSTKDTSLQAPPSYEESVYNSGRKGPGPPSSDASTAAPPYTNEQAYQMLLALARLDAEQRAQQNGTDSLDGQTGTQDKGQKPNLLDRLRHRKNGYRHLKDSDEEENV
Experiment: cell competition; competitor 5F1-biotin
Answer with the figure and its unit, nothing else.

Solved entries:
10C6 (antibody, V domains shown, human IgG; also called 10C6-biotin; 1006) VH: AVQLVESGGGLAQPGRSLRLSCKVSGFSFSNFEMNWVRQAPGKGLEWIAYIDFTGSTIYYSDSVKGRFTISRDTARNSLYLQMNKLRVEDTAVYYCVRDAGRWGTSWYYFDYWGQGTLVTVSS VL: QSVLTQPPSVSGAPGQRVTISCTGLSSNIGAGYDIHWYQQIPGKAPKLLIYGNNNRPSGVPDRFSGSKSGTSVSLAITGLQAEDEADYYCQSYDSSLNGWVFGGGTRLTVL : 100%
6B4 (antibody, V domains shown, human IgG; also called 6B4-biotin) VH: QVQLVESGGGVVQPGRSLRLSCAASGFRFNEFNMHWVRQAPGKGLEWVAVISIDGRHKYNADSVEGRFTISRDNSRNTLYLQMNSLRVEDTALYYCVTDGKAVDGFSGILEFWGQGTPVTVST VL: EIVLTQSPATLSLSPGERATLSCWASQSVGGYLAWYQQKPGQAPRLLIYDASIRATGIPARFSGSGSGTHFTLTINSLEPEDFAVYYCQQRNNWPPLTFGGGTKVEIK : 0%
4H9 (antibody, V domains shown, human IgG; also called 4H9-biotin; 4H9.6) VH: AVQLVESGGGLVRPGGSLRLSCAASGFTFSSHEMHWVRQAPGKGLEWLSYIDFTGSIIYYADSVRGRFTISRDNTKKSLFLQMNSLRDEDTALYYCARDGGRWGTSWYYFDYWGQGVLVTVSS VL: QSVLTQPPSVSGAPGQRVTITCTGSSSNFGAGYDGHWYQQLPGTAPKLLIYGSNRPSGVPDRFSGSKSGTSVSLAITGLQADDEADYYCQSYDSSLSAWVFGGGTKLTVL : 100%

-- ask Record request: Inhibition of binding (%) value, item 5F1 (antibody, V domains shown, human IgG; also called 5F1-biotin) VH: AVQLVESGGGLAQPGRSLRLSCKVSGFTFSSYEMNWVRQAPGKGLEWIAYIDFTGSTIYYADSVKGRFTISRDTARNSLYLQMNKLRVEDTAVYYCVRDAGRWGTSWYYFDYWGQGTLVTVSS VL: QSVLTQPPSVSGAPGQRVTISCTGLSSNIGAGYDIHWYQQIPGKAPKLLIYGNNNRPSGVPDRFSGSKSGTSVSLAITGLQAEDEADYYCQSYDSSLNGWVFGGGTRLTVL
-- reply 100%

-- ask Tell me the measured Inhibition of binding (%) of 7H3 (antibody, V domains shown, fully human IgG1 with unaltered Fc; also called 7H3-biotin; LJP538) VH: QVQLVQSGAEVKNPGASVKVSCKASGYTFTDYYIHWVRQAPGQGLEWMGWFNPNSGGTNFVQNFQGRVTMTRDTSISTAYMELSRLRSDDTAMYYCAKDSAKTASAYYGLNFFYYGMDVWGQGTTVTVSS VL: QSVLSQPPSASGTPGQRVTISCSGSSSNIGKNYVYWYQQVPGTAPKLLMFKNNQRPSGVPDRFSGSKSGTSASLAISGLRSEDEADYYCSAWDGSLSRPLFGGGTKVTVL , please.
-- reply 0%

-- ask May I ask what Inhibition of binding (%) has been recorded for 2B11 (antibody, V domains shown, human IgG; also called 2B11-biotin) VH: AVRLVESGGGLAQPGRSLRLSCQVSGFTFGSYEMNWVRQAPGKGLEWIAYIDFTGSTIYYADSVKGRFTISRNTARNSLYLQMNSLRVEDTAVYYCVRDAGRWGTSWYYFDYWGQGTRVTVSP VL: QSVLTQPPSVSGAPGQRVTISCTGISSNIGAGYDIHWYQQIPGKAPKLLVYGNNNRPSGVPDRFSGSKSGTSVSLAITGLQVEDEADYYCQSYDNSLNGWVFGGGTRLTVL ?
-- reply 100%
